# subject-of-test: bovine GnRH receptor (Bos taurus, UniProt P32236)
# Construct: membranes were prepared from bovine pituitary; from tissue; host or cells: bovine pituitary
# Sequence (P32236 whole entry): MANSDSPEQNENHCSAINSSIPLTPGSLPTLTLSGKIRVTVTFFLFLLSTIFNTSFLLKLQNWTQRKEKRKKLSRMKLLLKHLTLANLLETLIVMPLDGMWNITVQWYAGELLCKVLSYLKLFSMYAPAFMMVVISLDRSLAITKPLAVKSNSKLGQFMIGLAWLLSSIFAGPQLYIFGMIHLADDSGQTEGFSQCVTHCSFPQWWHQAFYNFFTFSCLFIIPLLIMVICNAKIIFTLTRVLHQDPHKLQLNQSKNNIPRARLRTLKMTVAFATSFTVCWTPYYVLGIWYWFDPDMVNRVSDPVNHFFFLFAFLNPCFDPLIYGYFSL
# assay: Radioligand binding, 125I-GnRH-A, bovine pituitary membranes
# measurement-parameters: means ± SE of at least three experiments performed in duplicate; read-out: Bovine IC50
pIC50: −log10 of the molar value. Where a SMILES comes first, the peptide text is derived from it. [ ]: non-standard residue; d: D form. The star is where a group is joined. dPhe(4-Cl) = N[C@H](Cc1ccc(Cl)cc1)C(=O)O; d2Nal = N[C@H](Cc1ccc2ccccc2c1)C(=O)O; Lys(iPr) = CC(C)NCCCC[C@H](N)C(=O)O; d3Pal = N[C@H](Cc1cccnc1)C(=O)O; Nicotinoyl = O=C(c1cccnc1)*
Decide by pIC50: equal to or exceeding 6 means condition met, less means condition not met.

# compound, group
records = [
    ("CC(=O)N[C@H](Cc1ccc2ccccc2c1)C(=O)N[C@H](Cc1ccc(Cl)cc1)C(=O)N[C@H](Cc1cccnc1)C(=O)N[C@@H](CO)C(=O)N[C@@H](CCCCNC(=O)c1cccnc1)C(=O)N[C@H](CCCCNC(=O)c1cccnc1)C(=O)N[C@@H](CC(C)C)C(=O)N[C@@H](CCCCNC(C)C)C(=O)N1CCC[C@H]1C(=O)N[C@H](C)C(N)=O [Antide, reference compound] (Ac-[d2Nal][dPhe(4-Cl)][d3Pal]SK(Nicotinoyl)[dK](Nicotinoyl)L[Lys(iPr)]P[dA]-NH2)", "condition met"),
    ("Cc1ccc(CNC(=O)c2ccc(Cc3cc4c(cc3C)C(C)(C)CCC4(C)C)o2)cc1C", "condition met"),
    ("Cc1cnc(CNC(=O)c2ccc(Cc3cc4c(cc3C)C(C)(C)CCC4(C)C)o2)cn1", "condition met"),
]

Hi team, for Cc1cc2c(cc1Cc1ccc(C(=O)NCC3CCC(CNC(=N)N)CC3)o1)C(C)(C)CCC2(C)C (stereo not shown) , is the recorded pIC50 at or above 6?
condition not met

###

# subject-of-test: human GnRH receptor (Homo sapiens, UniProt P30968)
# Construct: expressed in transfected cells; host or cells: HEK 293 (hGnRH-R/293, from Dr. Stuart Sealfon)
# Sequence (P30968 whole entry): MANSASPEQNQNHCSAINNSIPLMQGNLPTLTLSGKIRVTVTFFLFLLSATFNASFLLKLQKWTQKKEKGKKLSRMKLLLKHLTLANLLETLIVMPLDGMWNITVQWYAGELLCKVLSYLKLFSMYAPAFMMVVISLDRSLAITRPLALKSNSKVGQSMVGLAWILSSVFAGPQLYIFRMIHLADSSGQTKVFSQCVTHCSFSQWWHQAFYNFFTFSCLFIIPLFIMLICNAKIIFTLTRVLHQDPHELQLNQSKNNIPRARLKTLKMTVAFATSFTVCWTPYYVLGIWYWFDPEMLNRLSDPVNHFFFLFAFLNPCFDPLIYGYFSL
# assay: Radioligand binding, 125I-GnRH-A displacement, membranes of HEK 293 cells with human GnRH receptor
# measurement-parameters: 1 uM; read-out: % Inhib. @ 1 uM hGnRH
observation-type: inhibition at 1 µM (%)
Give bare numbers, in %.

# molecule, inhibition at 1 µM (%)
rows = [
    ("Cc1cc2c(cc1Cc1ccc(C(=O)NC(C)(C)Cc3ccc(F)cc3)o1)C(C)(C)CCC2(C)C", 21),
    ("Cc1cc2c(cc1Cc1ccc(C(=O)NCCc3ccc(N)cc3)o1)C(C)(C)CCC2(C)C [drawing 1017]", 57),
]

Field: inhibition at 1 µM. Fill in for each record below.
1. Cc1cc2c(cc1Cc1ccc(C(=O)NCCc3cccc(Cl)c3)o1)C(C)(C)CCC2(C)C
2. Cc1cc2c(cc1Cc1ccc(C(=O)NC(Cc3ccccc3)c3ccccc3)o1)C(C)(C)CCC2(C)C (centres unmarked)
3. Cc1cc2c(cc1Cc1ccc(C(=O)NCCc3ccc(Cl)c(Cl)c3)o1)C(C)(C)CCC2(C)C

1. 15
2. 13
3. -5
